method: Oral bioavailability in Beagle dog at 0.5 mg/kg, po
Type: ADME, organism-based, Canis lupus familiaris
test.context: in vivo
reported.metric: bioavailability

Inquiry: Consider the compound Cc1cc(C#N)cc(C(=O)c2c(C(C)C)c(=O)[nH]c(=O)n2Cc2cc(F)nc(F)c2)c1 and give its measured bioavailability.
Reply text: 41.5%

---

method: Oral bioavailability in Beagle dog at 4 mg/kg, po
Format: ADME, organism-based, Canis lupus familiaris
test.context: in vivo
reported.metric: bioavailability (%)
Provide only the numeric value, understood in %.

Inquiry: Consider the compound Cc1cc(C#N)cc(C(=O)c2c(C(C)C)c(=O)[nH]c(=O)n2Cc2cc(N)nc(F)c2)c1 and give its measured bioavailability.
Reply text: 96

---

Consider the following compounds and their measured fraction unbound readings.
test.system: Albumin (Homo sapiens)
Sequence (P02768 whole entry): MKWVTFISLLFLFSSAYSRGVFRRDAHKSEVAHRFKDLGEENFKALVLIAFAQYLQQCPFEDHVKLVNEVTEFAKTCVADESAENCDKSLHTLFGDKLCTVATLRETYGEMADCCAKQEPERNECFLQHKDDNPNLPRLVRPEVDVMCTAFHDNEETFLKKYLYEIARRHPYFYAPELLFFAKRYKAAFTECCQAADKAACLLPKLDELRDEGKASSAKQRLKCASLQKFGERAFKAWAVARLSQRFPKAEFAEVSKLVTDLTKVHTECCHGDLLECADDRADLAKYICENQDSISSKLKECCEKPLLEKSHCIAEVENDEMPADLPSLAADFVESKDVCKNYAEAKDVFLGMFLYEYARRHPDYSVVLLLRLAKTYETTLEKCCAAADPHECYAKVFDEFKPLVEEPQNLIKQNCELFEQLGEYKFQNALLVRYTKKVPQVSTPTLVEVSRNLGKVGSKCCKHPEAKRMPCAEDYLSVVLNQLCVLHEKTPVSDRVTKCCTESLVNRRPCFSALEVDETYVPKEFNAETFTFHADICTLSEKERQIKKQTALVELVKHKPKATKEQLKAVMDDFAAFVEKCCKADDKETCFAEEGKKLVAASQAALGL
method: Binding affinity to human serum albumin
Format: ADME
test.context: read-out: PB (converted)
Number only, no unit.

For orientation, consider the following solved cases.
Cc1cc(C#N)cc(C(=O)c2c(C(C)C)c(=O)[nH]c(=O)n2Cc2cc(F)nc(F)c2)c1 = 0.058
Cc1cc(C#N)cc(C(=O)c2c(C(C)C)c(=O)[nH]c(=O)n2Cc2cc(N)nc(F)c2)c1 = 0.064
Cc1cc(C#N)cc(C(=O)c2c(C(C)C)c(=O)[nH]c(=O)n2Cc2ccnc(F)c2)c1 = 0.123

Now for the compound whose fraction unbound we want.
Inquiry: Consider the compound Cc1cc(C#N)cc(C(=O)c2c(C(C)C)c(=O)[nH]c(=O)n2Cc2cc(N)nc(F)c2F)c1 and give its measured fraction unbound.
Reply text: 0.067

---

method: Half life in human microsomes
Assay type: ADME, Microsome
reported.metric: half-life (h)
Provide only the numeric value, understood in h.

For orientation, consider the following solved cases.
O=C1Nc2ccc(Cl)cc2[C@@](C#CC2CC2)(C(F)(F)F)O1 = 1.63
Cc1cc(C#N)cc(C(=O)c2c(C(C)C)c(=O)[nH]c(=O)n2Cc2cc(N)nc(F)c2F)c1 = 0.85
Cc1cc(C#N)cc(C)c1Oc1nc(Nc2ccc(C#N)cc2)nc(N)c1Br = 2.33
Cc1cc(C#N)cc(C(=O)c2c(C(C)C)c(=O)[nH]c(=O)n2Cc2cc(N)nc(F)c2)c1 = 0.75

Now for the compound whose half-life we want.
Inquiry: Consider the compound Cc1cc(C#N)cc(C(=O)c2c(C(C)C)c(=O)[nH]c(=O)n2Cc2ccnc(F)c2)c1 and give its measured half-life.
Reply text: 4.68
